assay: Pharmacokinetic evaluation in Macaca fascicularis monkeys, oral administration; assay type: in vivo; conditions: cynomolgus monkey, p.o. 5 mg/kg, plasma, read-out: MRT 0-∞
VALUE KIND: MRT inf (h)
Your answer should be a plain number; it is taken to be in h.

Looking up [2H]C([2H])([2H])n1nc2c3c(c(-n4ccn(-c5c6c(nn5-c5cc(C)c(F)c(C)c5)CCN(C(=O)c5cc7cc([C@H]8CCOC(C)(C)C8)ccc7n5[C@@]5(c7noc(=O)[nH]7)C[C@@H]5C)[C@H]6C)c4=O)ccc31)OCCC2 , I see its MRT inf listed as 68.9

Looking up Cc1cc(-n2nc3c(c2-n2ccn(-c4ccc5c(cnn5C5CC5)c4F)c2=O)[C@H](C)N(C(=O)c2cc4cc([C@H]5CCOC(C)(C)C5)ccc4n2[C@@]2(c4noc(=O)[nH]4)[C@@H]4COC[C@@H]42)CC3)cc(C)c1F , I see its MRT inf listed as 7.5
